B1: HSP90AB1 (parent)
chain: TLRQKAEADKNDKAVKDLVVLLFE

Variants of: B1
Experiment: protein stability index of a GFP-peptide fusion (GPS, HEK-293T) (PSI 1-6); higher = more stable;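 note: lentivirally expressed fusions sorted by FACS into six bins by GFP to DsRed ratio, PSI derived from sequencing read proportions per bin multiplied by bin number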
Details: c terminus: a fixed tail appended
This listing pairs variants with measured protein stability index.
readout-type: protein stability index

K10A: 3.44
V20L: 3.13
L2C: 3.12
A14W: 2.68
E24M: 1.83
D9K: 2.51
V19C: 3.16
D9A: 2.98
V15K: 3.27
L2R: 2.56
V20Q: 4.1
K16H: 3.29
V20E: 5.2
L21I: 2.35
D17K: 2.14
V19K: 4.26
L18K: 3.44
L21P: 4.61
R3Y: 2.35
A8H: 2.85
F23T: 4.76
A6R: 2.69
